tgt: Torsin-1A (Homo sapiens) (UniProt O14656)
Sequence (O14656 whole entry, looked up): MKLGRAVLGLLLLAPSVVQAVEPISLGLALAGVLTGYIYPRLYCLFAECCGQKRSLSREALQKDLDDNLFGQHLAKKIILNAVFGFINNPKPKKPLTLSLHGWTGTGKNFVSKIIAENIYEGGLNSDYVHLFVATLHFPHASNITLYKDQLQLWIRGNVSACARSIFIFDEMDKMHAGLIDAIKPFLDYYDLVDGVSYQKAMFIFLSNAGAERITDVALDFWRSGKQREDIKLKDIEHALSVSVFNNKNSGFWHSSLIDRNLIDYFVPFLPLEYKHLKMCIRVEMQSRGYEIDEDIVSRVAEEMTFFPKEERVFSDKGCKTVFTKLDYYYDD
assay-method-text: small-molecule binders of mutant TOR1A in lysate, primary screen, cell lysate, small-molecule microarray, COS7 lysate, 635/667 nm fluorescence (AID 1150);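 further: score pools 667 nm emission and signal to noise measuring lysate protein binding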
measurement-setup: COS7 hTOR1A mutant lysate, 635 nm fluorescence, higher = more signal
Measured composite z-score, listed per entry for reference.
Please respond with just the number, no unit label.

Consider the following illustrative entries.
[[record]]
smiles_record = "O=c1cccc(-c2cccc(Cl)c2)o1"
assay_endpoint = "composite z-score"
result_value = 0.617

[[record]]
smiles_record = "C=CCOC(=O)[C@H]1[C@@H]2C(=O)O[C@@H](c3ccccc3)[C@@H](c3ccccc3)N2[C@@H](c2ccc(OCCOC(=O)[C@H]3C[C@H]4C(=O)N[C@@H](CCCC[N+](C)(C)C)C(=O)N4[C@H]3c3cccc(OCCO)c3)cc2)[C@]12C(=O)Nc1ccc(I)cc12"
assay_endpoint = "composite z-score"
result_value = 0.29

[[record]]
smiles_record = "CCOC(=O)C[C@H]1[C@H](OC(=O)Cc2ccc3c(c2)OCO3)[C@@H](NC(=O)C2CCCCC2)c2cc(OCCCO)ccc2N1C(=O)c1ccc2ccccc2n1"
assay_endpoint = "composite z-score"
result_value = 0.172

[[record]]
smiles_record = "NC(=O)NCC#Cc1ccc2c(c1)[C@]1(C(=O)N2)[C@H](C(=O)O)[C@H]2C(=O)O[C@H](c3ccccc3)[C@H](c3ccccc3)N2[C@@H]1c1ccccc1OCCO"
assay_endpoint = "composite z-score"
result_value = 0.651

[[record]]
smiles_record = "O=C1NCC(=O)N2[C@@H]1C[C@@H](C(=O)O)[C@H]2c1ccc(O)cc1"
assay_endpoint = "composite z-score"
result_value = 2.29


Input `COc1ccc([Si](C)(C)[C@@H]2[C@@H](CC(=O)N3CCC[C@H]3CO)O[C@]3(C(=O)N(Cc4ccc(N5C(=O)c6cccc7cccc5c67)cc4)c4ccccc43)[C@H]2C)cc1` . Output composite z-score: 0.72

* * *

tgt: Torsin-1A-interacting protein 1 (Homo sapiens) (UniProt Q5JTV8)
Sequence (Q5JTV8 whole entry, looked up): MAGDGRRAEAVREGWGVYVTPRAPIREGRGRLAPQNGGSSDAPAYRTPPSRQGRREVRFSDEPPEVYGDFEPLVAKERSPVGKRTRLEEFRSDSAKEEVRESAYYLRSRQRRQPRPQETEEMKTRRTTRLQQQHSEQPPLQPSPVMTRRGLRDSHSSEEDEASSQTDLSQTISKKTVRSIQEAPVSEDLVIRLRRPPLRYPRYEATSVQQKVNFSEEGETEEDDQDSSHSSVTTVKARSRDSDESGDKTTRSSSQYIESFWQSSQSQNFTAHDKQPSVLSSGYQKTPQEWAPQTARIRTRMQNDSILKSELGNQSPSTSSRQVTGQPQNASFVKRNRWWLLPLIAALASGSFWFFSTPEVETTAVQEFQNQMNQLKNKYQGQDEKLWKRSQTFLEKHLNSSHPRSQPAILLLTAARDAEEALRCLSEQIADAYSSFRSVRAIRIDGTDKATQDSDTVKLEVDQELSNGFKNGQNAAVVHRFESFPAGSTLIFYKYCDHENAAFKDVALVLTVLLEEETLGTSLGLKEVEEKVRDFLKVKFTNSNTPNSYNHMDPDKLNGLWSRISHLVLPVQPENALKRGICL
assay-method-text: LAP1 binders from COS7 cell lysate, primary screen, small-molecule microarray, 635/667 nm fluorescence (AID 1116)
measurement-setup: COS7-hLAP1 lysate binding, 635 nm fluorescence, higher = more signal
Measured composite z-score, listed per entry for reference.
Answer using only a numeral; do not append any unit.

The following compounds have reported results that may help.
[[record]]
compound = "COc1ccc(NC(=O)O[C@H]2[C@H](OC(=O)Nc3ccc4c(c3)OCO4)[C@@H](OC(=O)Nc3ccc4c(c3)OCO4)[C@@H](OC)O[C@@H]2CO)cc1"
tgt = "Torsin-1A-interacting protein 1 (Homo sapiens) (UniProt Q5JTV8)"
result_value = 1.29

[[record]]
compound = "C=C[C@@H](COC(C)=O)NS(=O)(=O)c1ccc(Br)cc1"
tgt = "Torsin-1A-interacting protein 1 (Homo sapiens) (UniProt Q5JTV8)"
result_value = -0.0651

[[record]]
compound = "O=C(CCCCCCC(=O)Nc1ccccc1)N/N=C/c1ccccc1"
tgt = "Torsin-1A-interacting protein 1 (Homo sapiens) (UniProt Q5JTV8)"
result_value = 0.255


// recorded composite z-score for `CN(C)CCCN1C(=O)[C@@]2(c3ccc([N+](=O)[O-])cc3)CC(=O)N(CC34CC5CC(CC(C5)C3)C4)[C@@H]2c2ccc(CO)cc21` : -0.301

// field: composite z-score; key: COC(=O)C1(Cc2ccccc2)C=C2C(=C(C(C)C)C(=O)C2C)CN1 (stereo unspecified) ; value = 1.73

composite z-score recorded for this compound, CC=CC(O)C1C=CC2C(=O)N(C)C(=O)C2N1Nc1ccc([N+](=O)[O-])cc1[N+](=O)[O-] (stereo unspecified) , is -0.345

* * *

assay-method-text: P. aeruginosa biofilm formation inhibitors, primary screen, strain PAO1, LB-PBS medium, absorbance 600 nm (AID 1176); further: test concentration not given here
measurement-setup: P. aeruginosa PAO1 growth/biofilm, A600, 12 h; higher = more signal
assay-endpoint: z-score
Could you keep your reply to the number by itself?

What the record says about C[C@]12C(=O)N(CCCCCCO)[C@@H]3C(=O)N(c4ccc(Cl)cc4)CC=CC31O[C@@H]1/C=C\CCCOC(=O)C12 (stereo partly drawn) : z-score is -0.0558

So, `COc1ccc(NC(=O)O[C@H]2[C@H](OC(=O)Nc3ccc4c(c3)OCO4)[C@@H](OC(=O)Nc3ccc4c(c3)OCO4)[C@@H](OC)O[C@@H]2CO)cc1` ? Its z-score was 2.33

Form: compound = `CC(C)CNC(=O)[C@@H]1c2ccccc2C(=O)N(Cc2cc(F)cc(C(F)(F)F)c2)[C@H]1c1ccc(CO)cc1` ; z-score = 0.801

* * *

assay-method-text: basal 3T3-L1 adipocyte mitochondrial potential changes, profiling panel, cell-based, JC-1 fluorescence, 3T3-L1 adipocytes, 24 h, 100 nL compound (AID 1168); further: test concentration not given here
measurement-setup: JC-1 mitochondrial fluorescence, higher = more signal, called active from +8 up or from −8 down
Use -0.6 as the dividing line for z-score, with the line itself on the Condition met side and lower values as Condition not met.

Here's what some known entries look like.
[[record]]
compound = "C=CCOC(=O)[C@H]1[C@@H]2C(=O)O[C@@H](c3ccccc3)[C@@H](c3ccccc3)N2[C@@H](c2ccc(OCCOC(=O)[C@H]3C[C@H]4C(=O)N[C@@H](Cc5ccccc5)C(=O)N4[C@H]3c3cccc(OCCO)c3)cc2)[C@]12C(=O)Nc1ccc(I)cc12"
cat = "Condition met"

[[record]]
compound = "CO[C@H]1O[C@H](CO)[C@@H](OC(=O)Nc2ccccc2-c2ccccc2)[C@H](OC(=O)Nc2ccc3c(c2)OCO3)[C@@H]1OC(=O)Nc1ccc2c(c1)OCO2"
cat = "Condition met"

[[record]]
compound = "COCCOC(=O)N1C(=O)[C@@]2(c3cc(C#CC4=CCCCC4)ccc31)[C@H](C(=O)N1CCN(c3ncccn3)CC1)[C@H]1C(=O)O[C@H](c3ccccc3)[C@H](c3ccccc3)N1[C@@H]2c1ccc(O)cc1"
cat = "Condition met"

[[record]]
compound = "COc1cc(CO)cc(I)c1O[C@H]1C=C(C(=O)NCCO)C[C@@H](NCc2ccccc2F)[C@@H]1O"
cat = "Condition met"

[[record]]
compound = "O=C1O[C@H](c2ccccc2)[C@H](c2ccccc2)N2[C@H]1[C@@H](C(=O)O)[C@]1(C(=O)Nc3ccccc31)[C@H]2c1ccc(O)cc1"
cat = "Condition not met"


Here is another compound to look at.
State whether the measured z-score reaches -0.6, counting equality as reaching it, for CN1C(=O)C2C=CC(C(O)Cc3ccccc3)N(N(c3ccccc3)c3ccccc3)C2C1=O (stereo unspecified)
Condition not met

* * *

assay-method-text: small-molecule microarray binders of probe aNog, primary screen, biochemical, biotinylated probe, 635/667 nm fluorescence (AID 1115);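 further: probe is biotinylated aNog protein used at 0.15 µg/mL for 1 h at 4 C; z-score combines 667 nm fluorescence of each spot with its signal to noise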
measurement-setup: higher = more signal
Listing of recorded composite z-score by entry.
Quick one: just the number, no unit, thanks!

Solved entries (count: 4):
[[record]]
compound = "COc1ccc(C(O)C2C=CC3C(=O)N(c4ccccc4)C(=O)C3N2Nc2ccccc2)cc1OCc1ccccc1 (stereo not given)"
assay_endpoint = "composite z-score"
result_value = 1.26

[[record]]
compound = "O=C(O)[C@]1(Cc2ccccc2)N=C(c2ccc(OCCCO)cc2)O[C@@H]1c1ccccc1"
assay_endpoint = "composite z-score"
result_value = 0.306

[[record]]
compound = "C=C(/C(=C/C[C@@H](OC(=O)c1ccncc1)c1ccc(OCCO)cc1)c1cc(C(=O)OC)ccc1OC)C(C)C"
assay_endpoint = "composite z-score"
result_value = -0.45

[[record]]
compound = "O=C1OCCC=C[C@H]2OC34C=CCN(c5ccc(Cl)cc5)C(=O)[C@H]3N(CCCCCO)C(=O)[C@@H]4C12 (stereo not given in full)"
assay_endpoint = "composite z-score"
result_value = 0.496


Would you kindly look at the next entry?
Reported composite z-score for `COC(=O)[C@@]1(Cc2ccccc2)[C@H]2c3cc(C(=O)N4CCCC4)[nH]c3C[C@H]2CN1C(=O)c1ccccc1` was 1.1

* * *

Recorded composite z-score by entry
Tested on: wheat germ agglutinin (Triticum aestivum), Alexa647-labelled
assay-method-text: wheat germ agglutinin binders on compound microarrays, profiling panel, artefact control for SMM control-protein annotation, biochemical, small-molecule microarray, 635/667 nm fluorescence (AID 1140);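 further: score merges 667 nm feature emission with signal to noise over triplicate slides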
measurement-setup: WGA-A647 binding, 635 nm fluorescence, higher = more signal
Answer with a bare number; do not write a unit.

Some molecules with recorded composite z-score:
[[record]]
molecule = "C=CCN1C(=O)[C@@]2(O[C@@H](CCO)[C@H]([Si](C)(C)c3ccc(OC)cc3)[C@H]2C)c2cc(N3C(=O)c4ccccc4Oc4ccccc43)ccc21"
result_value = 0.615

[[record]]
molecule = "CC(C)CCC[C@@H](C)[C@H]1CC[C@@]2(C)C3=C(CC[C@]12C)[C@@]1(C)CC[C@H](OC(=O)c2ccc(Br)cc2)C(C)(C)C1CC3 (stereo not given in full)"
result_value = 0.538

[[record]]
molecule = "C=C(/C(=C/C[C@@H](OC(=O)c1ccncc1)c1ccc(OCCO)cc1)c1cc(C(=O)OC)ccc1OC)C(C)C"
result_value = 0.592

[[record]]
molecule = "COC(=O)[C@]1(CCS(=O)(=O)c2ccccc2)N=C(c2ccc(OCCCO)cc2)O[C@@H]1c1ccccc1CN=[N+]=[N-]"
result_value = 0.528

[[record]]
molecule = "Cc1ccc(F)cc1S(=O)(=O)N[C@@H]1CCN(Cc2ccc(Oc3ccccc3)cc2)C1"
result_value = 0.853

[[record]]
molecule = "CC=CC(O)C1C=CC2C(=O)N(c3ccccc3)C(=O)C2N1Nc1ccccc1 (stereo not given)"
result_value = 1.15

[[record]]
molecule = "C=C(CCCC)/C(=C/C[C@@H](OC(C)=O)c1ccc(CO)o1)c1cc(C(=O)OC)ccc1OC"
result_value = 0.454

[[record]]
molecule = "C=C1C2CC3C(=C4C(CO[C@@H]4[C@H]4CCCN4S(=O)(=O)c4ccccc4[N+](=O)[O-])C4C(=O)N(C)C(=O)C34)CC2C(=O)N1C (stereo not given in full)"
result_value = 0.337

[[record]]
molecule = "NC(=O)NCC#Cc1ccc2c(c1)[C@]1(C(=O)N2)[C@H](c2ccc(O)cc2)N2[C@H](c3ccccc3)[C@H](c3ccccc3)OC(=O)[C@H]2[C@@H]1C(=O)Nc1nc2ccccc2s1"
result_value = 0.717

[[record]]
molecule = "CN(C)C(=O)[C@@]1(Cc2ccccc2N=[N+]=[N-])COC(c2ccc(OCCCO)cc2)=N1"
result_value = 0.51


For reference, reported composite z-score for `COCCOC(=O)N1C(=O)[C@@]2(c3cc(C#CC4(O)CCCCCC4)ccc31)[C@H](C(=O)N1CCCCCCC1)[C@H]1C(=O)O[C@H](c3ccccc3)[C@H](c3ccccc3)N1[C@@H]2c1ccc(OCCO)cc1` stands at 1.09

The molecule identified as [N-]=[N+]=NCc1ccccc1C[C@]1(C(=O)NCC(O)CO)N=C(c2ccc(OCCCO)cc2)O[C@H]1c1ccccc1CN=[N+]=[N-] (stereo not given in full) registered its composite z-score at 0.205

Measured composite z-score of `CO[C@H]1O[C@H](CO)[C@@H](OC(=O)Nc2ccccc2-c2ccccc2)[C@H](OC(=O)Nc2ccc3c(c2)OCO3)[C@@H]1OC(=O)Nc1ccc2c(c1)OCO2` : 0.412

The reported value for `O=C1O[C@@H](c2ccccc2)[C@@H](c2ccccc2)N2[C@@H](c3ccccc3OCCO)[C@]3(C(=O)Nc4ccc(C#CC5=CCCCC5)cc43)[C@@H](C(=O)NC[C@H](O)c3ccccc3)[C@H]12` in terms of composite z-score is -0.186

Reported composite z-score ( `CCOC(=O)C[C@H]1[C@H](OC(=O)Cc2ccc3c(c2)OCO3)[C@@H](NC(=O)C2CCCCC2)c2cc(OCCCO)ccc2N1C(=O)c1ccc2ccccc2n1` ) = -0.176
